Experiment: Healthy volunteers, single-dose arm, sc
Format: in vivo
Details: both, human, plasma, sc, 1 mg, t½, single 1.0 mg sc, mean (SD), n=6

[
  {
    "line_notation": "CCCC[C@H](NC(C)=O)C(=O)N[C@H]1CCC(=O)NC[C@@H](C(=O)N[C@@H](Cc2c[nH]c3ccccc23)C(N)=O)NC(=O)[C@H](CCCNC(=N)N)NC(=O)[C@@H](Cc2ccccc2)NC(=O)[C@H](Cc2c[nH]cn2)NC1=O",
    "half-life / h": 6.7
  }
]

====

Experiment: Healthy volunteers, single-dose arm, sc
Format: in vivo
Details: both, human, plasma, sc, 1 mg, Vd/F, single 1.0 mg sc, median, n=3
quantity_name: Vd/F (L)

[
  {
    "compound": "CCCC[C@H](NC(C)=O)C(=O)N[C@H]1CCC(=O)NC[C@@H](C(=O)N[C@@H](Cc2c[nH]c3ccccc23)C(N)=O)NC(=O)[C@H](CCCNC(=N)N)NC(=O)[C@@H](Cc2ccccc2)NC(=O)[C@H](Cc2c[nH]cn2)NC1=O [PL8177]",
    "unit_of_measure": "L",
    "quantitative_result": 186
  }
]

====

Test: Healthy volunteers, single-dose arm, sc
Format: in vivo
Details: both, human, plasma, sc, 5 mg, AUC∞, single 5.0 mg sc, mean (SD), n=6
quantity_name: AUC(0-inf) (µg·h/mL)

[
  {
    "line_notation": "CCCC[C@H](NC(C)=O)C(=O)N[C@H]1CCC(=O)NC[C@@H](C(=O)N[C@@H](Cc2c[nH]c3ccccc23)C(N)=O)NC(=O)[C@H](CCCNC(=N)N)NC(=O)[C@@H](Cc2ccccc2)NC(=O)[C@H](Cc2c[nH]cn2)NC1=O",
    "unit_of_measure": "µg·h/mL",
    "quantitative_result": 0.24
  }
]

====

Assay: Healthy volunteers, single-dose arm, sc
Type: in vivo
Details: both, human, plasma, sc, 5 mg, Cmax, single 5.0 mg sc, mean (SD), n=6

[
  {
    "molecule": "CCCC[C@H](NC(C)=O)C(=O)N[C@H]1CCC(=O)NC[C@@H](C(=O)N[C@@H](Cc2c[nH]c3ccccc23)C(N)=O)NC(=O)[C@H](CCCNC(=N)N)NC(=O)[C@@H](Cc2ccccc2)NC(=O)[C@H](Cc2c[nH]cn2)NC1=O [PL8177]",
    "unit_of_measure": "ng/mL",
    "Cmax": 87.8
  }
]

====

Assay: Healthy volunteers, single-dose arm, sc
Assay type: in vivo
Details: both, human, plasma, sc, 0.1 mg, Cmax, single 0.1 mg sc, mean (SD), n=4
quantity_name: Cmax

[
  {
    "line_notation": "CCCC[C@H](NC(C)=O)C(=O)N[C@H]1CCC(=O)NC[C@@H](C(=O)N[C@@H](Cc2c[nH]c3ccccc23)C(N)=O)NC(=O)[C@H](CCCNC(=N)N)NC(=O)[C@@H](Cc2ccccc2)NC(=O)[C@H](Cc2c[nH]cn2)NC1=O",
    "result": "2.3 ng/mL"
  }
]

====

Assay: Healthy volunteers, single-dose arm, sc
Format: in vivo
Details: both, human, plasma, sc, 1 mg, AUC∞, single 1.0 mg sc, mean (SD), n=6

[
  {
    "compound": "CCCC[C@H](NC(C)=O)C(=O)N[C@H]1CCC(=O)NC[C@@H](C(=O)N[C@@H](Cc2c[nH]c3ccccc23)C(N)=O)NC(=O)[C@H](CCCNC(=N)N)NC(=O)[C@@H](Cc2ccccc2)NC(=O)[C@H](Cc2c[nH]cn2)NC1=O [PL8177]",
    "AUC(0-inf)": "46.2 ng·h/mL"
  }
]

====

Test: Healthy volunteers, single-dose arm, sc
Assay type: in vivo
Conditions: both, human, plasma, sc, 1 mg, CL/F, single 1.0 mg sc, mean (SD), n=6

[
  {
    "line_notation": "CCCC[C@H](NC(C)=O)C(=O)N[C@H]1CCC(=O)NC[C@@H](C(=O)N[C@@H](Cc2c[nH]c3ccccc23)C(N)=O)NC(=O)[C@H](CCCNC(=N)N)NC(=O)[C@@H](Cc2ccccc2)NC(=O)[C@H](Cc2c[nH]cn2)NC1=O",
    "unit_of_measure": "mL/min",
    "CL/F": 382
  }
]
